Values from paper PMC9143054

- assay.overview: Acetaminophen pharmacokinetics after 1 g intravenous infusion (serum LC-MS/MS, noncompartmental analysis)
- Type: in vivo, human
- test.settings: human, serum; concomitant drug therapy: Other (Inhibitors + Inducers) (n = 1), single patient; 1 g iv
- Method: Serum samples were collected every 30 min starting from the administration until 6 h after the treatment was initiated and immediately frozen at −80 °C until analysis. […] The protocol also included the collection of whole blood samples for genetic analyses. The samples were mixed for 15 s and kept on ice for 20 min. Then, the samples were centrifuged for 10 min at 3000× g, at 4 °C. The supernatant (750 μL) was evaporated under a nitrogen stream. […]
observed.property: C0 (ng/mL)

# compound, observed.property, unit.string, number
measured = [
    ("CC(=O)Nc1ccc(O)cc1 [Acetaminophen]", "C0", "ng/mL", 3340),
]

---

- assay.overview: Acetaminophen pharmacokinetics after 1 g intravenous infusion (serum LC-MS/MS, noncompartmental analysis)
- Type: in vivo, human
- test.settings: human, serum; concomitant drug therapy: Other (Inhibitors + Inducers) (n = 1), single patient; 1 g iv

# molecule, MRT, h
measured = [
    ("CC(=O)Nc1ccc(O)cc1 [Acetaminophen]", 2.23),
]

---

- assay.overview: Acetaminophen pharmacokinetics after 1 g intravenous infusion (serum LC-MS/MS, noncompartmental analysis)
- Assay type: in vivo, human
- test.settings: human, serum; concomitant drug therapy: Other (Inhibitors + Inducers) (n = 1), single patient; 1 g iv

# chem.smiles, unit.string, AUC(0-t)
measured = [
    ("CC(=O)Nc1ccc(O)cc1", "ng·h/mL", 6660),
]

---

- assay.overview: Acetaminophen pharmacokinetics after 1 g intravenous infusion (serum LC-MS/MS, noncompartmental analysis)
- Assay type: in vivo, human
- test.settings: human, serum; concomitant drug therapy: Other (Inhibitors + Inducers) (n = 1), single patient; 1 g iv; read-out: t1/2 (converted)

# compound, half-life / h
measured = [
    ("CC(=O)Nc1ccc(O)cc1 [Acetaminophen]", 1.54),
]

---

- assay.overview: Acetaminophen pharmacokinetics after 1 g intravenous infusion (serum LC-MS/MS, noncompartmental analysis)
- Assay type: in vivo, human
- test.settings: human, serum; concomitant drug therapy: Other (Inhibitors + Inducers) (n = 1), single patient; 1 g iv

# chem.smiles, AUC(0-inf) [ng·h/mL]
rows = [
    ("CC(=O)Nc1ccc(O)cc1", 7440),
]
